Attribution: patent US9828385B2

target: human V1a receptor (Homo sapiens); construct: expressed in transfected cells; host or cells: HEK293 cells, transiently transfected; cell membranes; assay: human V1a receptor binding studies (3H-Vasopressin, SPA beads); details: membranes of HEK293 cells transiently transfected with human V1a receptor, Ki by Cheng-Prussoff from IC50, read-out: pKi hV1a (converted)
Sequence (P37288 whole entry): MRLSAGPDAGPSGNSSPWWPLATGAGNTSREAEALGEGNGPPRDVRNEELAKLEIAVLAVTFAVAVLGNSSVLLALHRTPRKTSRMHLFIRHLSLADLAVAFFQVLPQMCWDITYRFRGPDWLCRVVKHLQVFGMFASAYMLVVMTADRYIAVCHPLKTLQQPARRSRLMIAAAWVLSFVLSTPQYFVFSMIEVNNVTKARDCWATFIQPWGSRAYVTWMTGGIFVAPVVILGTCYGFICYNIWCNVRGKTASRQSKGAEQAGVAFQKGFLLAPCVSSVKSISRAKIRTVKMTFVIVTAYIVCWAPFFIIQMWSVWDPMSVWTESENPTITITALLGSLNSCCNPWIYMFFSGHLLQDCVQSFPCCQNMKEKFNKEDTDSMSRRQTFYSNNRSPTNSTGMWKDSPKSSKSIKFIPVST
assay-metric: Ki (nM)

Would you please look over these solved cases?
compound=O=C1N=C(N2CCC3(CC2)OCc2ccccc23)O[C@H]1Cc1ccccc1 target_system="human V1a receptor (Homo sapiens)" unit_tag=nM meas_value=25.1
compound=O=C1N=C(N2CCC3(CC2)OCc2ccccc23)OC12CCCC2 target_system="human V1a receptor (Homo sapiens)" unit_tag=nM meas_value=158

I = CC1(C(F)(F)c2ccc(C(F)F)cc2)OC(N2CCC3(CC2)OCc2ccccc23)=NC1=O (stereo not shown)
II = C=CCC1(CC(=C)C(F)(F)F)OC(N2CCC3(CC2)OCc2ccccc23)=NC1=O (stereo not shown)
Q. Lower Ki: I or II ? Lab log: write the label of the selected item as the result.
A. II

----------
target: human V1a receptor (Homo sapiens); construct: expressed in transfected cells; host or cells: HEK293 cells, transiently transfected; cell membranes; experiment: human V1a receptor binding studies (3H-Vasopressin, SPA beads); settings: membranes of HEK293 cells transiently transfected with human V1a receptor, Ki by Cheng-Prussoff from IC50, read-out: pKi hV1a (converted)
assay-metric: Ki (nM)

P = CC1(CC2CCCCC2)OC(N2CCC3(CC2)OCc2ccccc23)=NC1=O (stereo not shown)
Q = O=C1N=C(N2CCC3(CC2)OCc2ncccc23)OC1Cc1ccccc1 (stereo not shown)
R = O=C1OC2(CCN(C3=NC(=O)C(C(O)c4ccc(Cl)cc4)O3)CC2)c2ccccc21 (single isomer, unassigned) [Example 52]
S = O=C1OC2(CCN(C3=NC(=O)C4(CCCCC4)O3)CC2)c2ccccc21
Q. In this exercise, place the 4 compounds in ascending sequence of their recorded Ki. List labels; respect the requested ordering.
A. P, Q, S, R

----------
molecular target: human V1a receptor (Homo sapiens); construct: expressed in transfected cells; host or cells: HEK293 cells, transiently transfected; cell membranes; test: human V1a receptor binding studies (3H-Vasopressin, SPA beads); conditions: membranes of HEK293 cells transiently transfected with human V1a receptor, Ki by Cheng-Prussoff from IC50, read-out: pKi hV1a (converted)
assay-metric: Ki (nM)

molecule="CC1(CC2CCCC2)OC(N2CCC3(CC2)OCc2ccccc23)=NC1=O (single isomer, unassigned; (-)) [Example 78]" meas_value=100
molecule="C#CCC1(CC=C)OC(N2CCC3(CC2)OCc2ccccc23)=NC1=O (centres unmarked)" meas_value=39.8

I = CC1(C(F)c2ccc(Cl)cc2)OC(N2CCC3(CC2)OCc2ccccc23)=NC1=O (centres unmarked)
II = CC(c1ccccc1)C1(C)OC(N2CCC3(CC2)OCc2ccccc23)=NC1=O (single isomer, unassigned; diastereomer b) [Example 107]
III = O=C1N=C(N2CCC3(CC2)OCc2ccccc23)OC12CCS(=O)(=O)CC2
Q. Order the records, beginning with the lowest Ki and ending with the highest. List labels; respect the requested ordering.
A. II, I, III
